- TARGET_DESC: T1, anti-CD28 scFv (VH - linker 1 - VL) (biotinylated (site not stated))
- T1 construct: Captured as biotinylated scFv on neutravidin coated plates in the clonal phage ELISA
- TEST_METHOD_NOTES: clonal phage ELISA; captured anti-CD28 scFv pre-incubated with soluble CD28 (competitor), anti-M13-HRP detection;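 also: crude clonal phage supernatants added to wells pretreated with soluble CD28 in blocking buffer, compared against wells given blocking buffer only, then bound phage measured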
Recorded CD28 scFv signal in presence of CD28 values for a group of binders are listed next.
ATTRIBUTE_MEASURED: CD28 scFv signal in presence of CD28

>>> print(df.to_string())
                                      binder  assay_value
 0  FDFCPTTMWTYCQH (tested as crude clonal phage supernatant) [Phage-220]        0.081
 1  MDWCPWDMWDKCFN (tested as crude clonal phage supernatant) [Phage-217]        0.108
 2  MDWCPRDMWDQCFD (tested as crude clonal phage supernatant) [Phage-201]        0.119
 3  IDWCPQDMWFYCFN (tested as crude clonal phage supernatant) [Phage-209]         0.16
 4  MDWCPRAMWNHCFN (tested as crude clonal phage supernatant) [Phage-198]        0.426
 5  MDWCPRHMWYECFF (tested as crude clonal phage supernatant) [Phage-197]        0.298
 6  MDWCPRYMWNECFN (tested as crude clonal phage supernatant) [Phage-215]        0.128
 7  MDWCPTDMWIVCFA (tested as crude clonal phage supernatant) [Phage-208]        0.172
 8  MDWCPRNMWAQCFA (tested as crude clonal phage supernatant) [Phage-199]        0.209
 9  MDWCPTDMWHHCFL (tested as crude clonal phage supernatant) [Phage-205]        0.126
10  MNWCPSYMWDQCFA (tested as crude clonal phage supernatant) [Phage-213]        0.105
11  MDWCPRDQWHNCFN (tested as crude clonal phage supernatant) [Phage-222]        0.078
12  MDWCPRDMWFECFA (tested as crude clonal phage supernatant) [Phage-210]        0.143
13  MFWCPMDMWDQCFN (tested as crude clonal phage supernatant) [Phage-202]        0.207
14  MSWCPRDMWFYCYA (tested as crude clonal phage supernatant) [Phage-203]        0.174
15  MDWCPRAMWDKCFF (tested as crude clonal phage supernatant) [Phage-212]        0.094
